The reported numbers originate from PubChem BioAssay (NCI).

- assay.comment: NCI Yeast Anticancer Drug Screen. Data for the mlh1 rad18 strain (AID 175)
- condition.label: S. cerevisiae mlh1 rad18 strain growth inhibition; at 50.0 µM
Compounds without any hit were thinned out: in the full panel of roughly 79,000, 15% have a hit. Activity calls are given as the source filed them. Rule as the data show it: active = growth inhibition above about 70%; inactive = the rest.
Your reply should match one of these outcome classes. t for active, f for inactive

Task item: Lab log entry: O=[N+]([O-])OC(c1ccncc1)C(O[N+](=O)[O-])c1ccncc1 (stereo not given) — outcome as called in the assay?
Reply: f

Task item: Lab log entry: Cc1cn([C@H]2CC3C(CON3C)O2)c(=O)[nH]c1=O (stereo not given in full) — outcome as called in the assay?
Reply: f

Task item: Lab log entry: "CC1(C)c2ccccc2C(c2ccccc2)(c2ccccc2)[N+]1(C)C" — outcome as called in the assay?
Reply: f

Task item: Lab log entry: ClC1OC(Cl)(Cl)C(Cl)(Cl)OC1(Cl)Cl (stereo not given) — outcome as called in the assay?
Reply: f

Task item: Lab log entry: "[Fe+2].[c-]1[c-][c-][cH-][c-]1.[c-]1[c-][c-][cH-][c-]1.c1cc[c]([Pb]([c]2ccccc2)[c]2ccccc2)cc1" — outcome as called in the assay?
Reply: t
